Target: NA from influenza PR8 virus (Influenza A virus)
Sequence (P03468 whole entry, looked up): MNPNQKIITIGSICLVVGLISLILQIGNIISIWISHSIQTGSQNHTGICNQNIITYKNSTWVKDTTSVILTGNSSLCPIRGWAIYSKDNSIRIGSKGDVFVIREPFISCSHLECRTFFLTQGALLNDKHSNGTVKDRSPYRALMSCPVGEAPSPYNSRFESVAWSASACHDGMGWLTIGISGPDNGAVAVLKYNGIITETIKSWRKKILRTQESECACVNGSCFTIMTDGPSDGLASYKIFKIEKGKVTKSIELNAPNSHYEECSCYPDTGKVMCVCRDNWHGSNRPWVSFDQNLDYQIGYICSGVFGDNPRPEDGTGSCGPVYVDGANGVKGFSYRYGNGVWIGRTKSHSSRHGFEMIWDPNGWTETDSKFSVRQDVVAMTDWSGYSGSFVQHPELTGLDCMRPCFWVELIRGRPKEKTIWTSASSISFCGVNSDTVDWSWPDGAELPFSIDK

COMPOUND	IC50
O=C(O)C1=CC(=C(c2ccc(O)c(C(=O)O)c2)c2ccc(O)c(C(=O)O)c2)C=CC1=O [ATA, Aurintricarboxylic acid]	17 µM
